For each entry below, report its IC50 value.
# Test system: KALS1
# assay.summary: Colony formation (CFU) assay
# Assay type: cell-based
# experimental.parameters: Homo sapiens, KALS-1; KALS1, nervous system
# Description: In vitro experiments were conducted using the colony formation unit (CFU) assay on various cell lines. […] The plates were imaged then the amount of crystal violet stain in each well was quantified by extracting the crystal violet into 10% acetic acid and the absorbance measured at 565 nm. IC50 values were calculated by fitting a two-parameter hill equation to the dose-response measurements. […] Bliss synergy scores were calculated using the synergyfinder R package version 1.6.1.

[ask] What value of IC50 on KALS1 does COc1ncnc(C2CC2)c1-c1ncc2cnn(Cc3ccc(-c4nc(C(F)(F)F)cn4C)cc3)c2n1 have?
[reply] > 300 nM

[ask] What value of IC50 on KALS1 does NC(=O)c1cccc2cn(-c3ccc([C@@H]4CCCNC4)cc3)nc12 [Niraparib, niraparib, reference compound] have?
[reply] > 300 nM

----------
For each entry below, report its pIC50 value.
# Tested on: RT11284
# assay.summary: Colony formation (CFU) assay
# Format: cell-based
# experimental.parameters: Homo sapiens, RT112/84; RT11284, bladder
pIC50: −log10 of the molar value.

[ask] Report pIC50 for COc1ncnc(C2CC2)c1-c1ncc2cnn(Cc3ccc(-c4nc(C(F)(F)F)cn4C)cc3)c2n1 please.
[reply] < 6.52

[ask] Report pIC50 for NC(=O)c1cccc2cn(-c3ccc([C@@H]4CCCNC4)cc3)nc12 [Niraparib, niraparib, reference compound] please.
[reply] < 6.52

----------
For each entry below, report its pIC50 value.
# Test system: SKMEL24
# assay.summary: Colony formation (CFU) assay
# Format: cell-based
# experimental.parameters: Homo sapiens, SK-MEL-24; SKMEL24, skin
pIC50: −log10 of the molar value.

[ask] Report pIC50 for NC(=O)c1cccc2cn(-c3ccc([C@@H]4CCCNC4)cc3)nc12 [Niraparib, niraparib, reference compound] please.
[reply] < 6.52

[ask] Report pIC50 for COc1ncnc(C2CC2)c1-c1ncc2cnn(Cc3ccc(-c4nc(C(F)(F)F)cn4C)cc3)c2n1 [Formula II] please.
[reply] < 6.52

----------
# Test system: HS739T
# assay.summary: Colony formation (CFU) assay
# Format: cell-based
# experimental.parameters: breast
pIC50: −log10 of the molar value.
endpoint.name: pIC50

[ask] Report pIC50 for COc1ncnc(C2CC2)c1-c1ncc2cnn(Cc3ccc(-c4nc(C(F)(F)F)cn4C)cc3)c2n1 please.
[reply] < 6.52

[ask] Report pIC50 for NC(=O)c1cccc2cn(-c3ccc([C@@H]4CCCNC4)cc3)nc12 [Niraparib, niraparib, reference compound] please.
[reply] < 6.52

----------
# Test system: SCC25
# assay.summary: Colony formation (CFU) assay
# Format: cell-based
# experimental.parameters: Homo sapiens, SCC-25; SCC25, head and neck
endpoint.name: IC50

[ask] What value of IC50 on SCC25 does COc1ncnc(C2CC2)c1-c1ncc2cnn(Cc3ccc(-c4nc(C(F)(F)F)cn4C)cc3)c2n1 have?
[reply] > 300 nM

[ask] What value of IC50 on SCC25 does NC(=O)c1cccc2cn(-c3ccc([C@@H]4CCCNC4)cc3)nc12 [Niraparib, niraparib, reference compound] have?
[reply] > 300 nM

----------
# Tested on: SUM149PT
# assay.summary: Colony formation (CFU) assay
# Assay type: cell-based
# experimental.parameters: Homo sapiens, breast
endpoint.name: pIC50
# log scale: pIC50 equals minus log10 of the concentration in mol/L

[ask] Report pIC50 for NC(=O)c1cccc2cn(-c3ccc([C@@H]4CCCNC4)cc3)nc12 [Niraparib, niraparib, reference compound] please.
[reply] 6.87
